Cited source: patent US11608380B2

Biological target: EGFRvIII-mFc
Sequence (as listed by the source): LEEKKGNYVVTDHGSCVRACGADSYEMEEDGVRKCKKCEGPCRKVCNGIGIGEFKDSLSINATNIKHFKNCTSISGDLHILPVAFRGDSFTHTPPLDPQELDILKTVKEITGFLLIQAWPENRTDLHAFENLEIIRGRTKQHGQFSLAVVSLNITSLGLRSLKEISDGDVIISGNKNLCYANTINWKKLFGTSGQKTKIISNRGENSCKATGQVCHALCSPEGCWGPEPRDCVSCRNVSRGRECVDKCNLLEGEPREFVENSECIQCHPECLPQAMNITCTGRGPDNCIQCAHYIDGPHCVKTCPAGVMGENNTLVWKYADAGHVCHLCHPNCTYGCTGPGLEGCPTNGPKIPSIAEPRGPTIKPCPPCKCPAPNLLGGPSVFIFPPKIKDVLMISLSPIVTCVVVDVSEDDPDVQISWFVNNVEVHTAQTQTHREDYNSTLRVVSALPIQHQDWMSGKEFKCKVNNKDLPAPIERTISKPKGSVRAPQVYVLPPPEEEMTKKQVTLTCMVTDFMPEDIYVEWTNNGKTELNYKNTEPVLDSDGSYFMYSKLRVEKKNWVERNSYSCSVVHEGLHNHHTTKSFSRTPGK
Format: binding, human
Conditions: 37° C., receptor-capture, EGFRvIII-mFc captured
Procedure: Measurements were conducted on a T100 BIACORE™ instrument. […] In the receptor-capture format, either EGFRvIII-mFc or EGFR-mFc, was captured on the BIACORE™ chip and the respective antibodies flowed over. Kinetic association (ka) and dissociation (kd) rate constants were determined by processing and fitting the data to a 1:1 binding model using Scrubber 2.0 curve fitting software. […]
Measured kd by item
Value Kind: kd (s⁻¹)

[[record]]
molecule = "H1H1915N: human IgG1 Fc anti-EGFRvIII antibody with variable domains 1915; HCVR/LCVR SEQ ID NOs 82/90 (antibody, V domains shown, human IgG1 Fc) VH: QVQLVESGGGVVQPGRSLRLSCAASGFTFSAYAMHWVRQAPGKGLEWVAVIWYDGSNKNYADSVKGRFTVSRDNSKNTLYLEMNSLRAEDTAVYYCARDLMVGVTNYWGQGTLVTVST VL: DVVMTQSPLSLPVALGQPASISCRSSQSLVYTDGNTYLNWFHQRPGQSPRRLIYKVSNRDSGVPDRFTGSGSGTDFTLKISRVEAEDVGVFYCMQGSHWPPYTFGQGTKLEIK"
value_kind = "kd"
test_value = 0.000328

[[record]]
molecule = "H1H1912N: human IgG1 Fc anti-EGFRvIII antibody with variable domains 1912; HCVR/LCVR SEQ ID NOs 66/74 (antibody, V domains shown, human IgG1 Fc) VH: EVQLVESGGGLVQPGRSLRLSCAASGFTFDDYAMHWVRQVPGKGLEWVSGISWNSGSIGYADSVKGRFTISRDNAKNSLYLQMNSLRAEDTALYYCAKDIHDYGKDYYYYYGMDVWGQGTTVTVSS VL: EIALTQSPGTLSLSPGERATLSCRASQSVSSTYLAWYQQKPGQAPRLLIYGASSRATGIPDRFSGSGSGTDFTLTISRLEPEDFAVYYCQQYDSSPITFGQGTRLEIK"
value_kind = "kd"
test_value = 0.000537

[[record]]
molecule = "H1H2195P: human IgG1 Fc anti-EGFRvIII antibody; HCVR/LCVR SEQ ID NOs 18/26 (antibody, V domains shown, human IgG1 Fc) VH: QVQLVESGGGVVQPGRSRRLSCVGSGFIFSSYGMHWVRQAPGKGLEWVALIFYDGSNEYYVDSVKGRFTISRDNSKNTLYLQMNSLRAEDTAVYYCAREGYSQRYKYYFGMDVWGQGTTVTVSS VL: DIQMTQSPSSVSASVGDRVTITCRASQGISSWLAWYQQQPGKAPKLLIYAASSLQSGVPSRFSGSGSGTDFTLTISSLQPEDFATYYCQQTNSFPLTFGGGTKVEIKR"
value_kind = "kd"
test_value = "2.53e-05"

[[record]]
molecule = "H1H1911N: human IgG1 Fc anti-EGFRvIII antibody with variable domains 1911; HCVR/LCVR SEQ ID NOs 50/58 (antibody, V domains shown, human IgG1 Fc) VH: QVQLVESGGGVVQPGRSLRLSCAASGFTFSRYGIHWVRQAPGKGLEWVAVIWHDGSNKYYADSVKGRFTISRDNSKNTLYLQMTSLRAEDTAVYYCARDGLEIRDHYYYGMDVWGQGTTVTVSS VL: DIQMTQSPSTLSASVGDRVTITCRASQSTSSWLAWYQQKPGKAPTLLIYKASSLESGVPSKFSGSGSGTEFTLTISSLQPDDFATYYCQQYNRYSRTFGQGTKVEIK"
value_kind = "kd"
test_value = 0.000643

